B1: Twister Ribozyme (parent)
chain: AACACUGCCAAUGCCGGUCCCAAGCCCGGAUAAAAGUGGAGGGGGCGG

- Variants of: B1
- Experiment Notes: self-cleavage, relative activity (ratio to wild type); higher = more cleavage; co-transcriptional
Please go through the items and note down their self-cleavage.

Record excerpt, results attached:
> print(dat)
    variant.annotation  outcome.measure  reported.value
 1           G16U G38A    self-cleavage           0.935
 2           G13A C15G    self-cleavage           0.118
 3           A32U G38A    self-cleavage            0.85
 4           A40U G42U    self-cleavage            0.15
 5           C25G A32G    self-cleavage           0.216
 6           A22U G36C    self-cleavage            0.19
 7            C8G G24U    self-cleavage           0.747
 8            C8A G28A    self-cleavage           0.281
 9           C19A A33C    self-cleavage          0.0946
10           G13U A23U    self-cleavage          0.0818

Dear colleague, could you please provide self-cleavage for the variants listed below?
1. U6A C26U
2. U31G G47C
3. U18C G43A
4. A10C C15A
5. C14G A32U
6. G38C G39A

0.237
0.755
0.188
0.493
0.184
0.243

Dear colleague, could you please provide self-cleavage for the variants listed below?
1. C19G G29C
2. A4G U18A
3. G28U A34C
4. G7A G48C
5. G16U G41C
6. A22G A32G
7. U31A G41U

1. 0.0886
2. 0.364
3. 0.205
4. 0.457
5. 0.212
6. 0.25
7. 0.55

Source of measurements: the RNAGym collection of RNA variant scans (doi:10.7554/elife.80360)
